Molecular target: soluble guanylate cyclase (sGC) (Homo sapiens, UniProt Q02108+Q02153)
Construct: endogenously expressing soluble guanylate cyclase (sGC); endogenous in cells; host or cells: HEK293
Sequence (Q02153 1-619): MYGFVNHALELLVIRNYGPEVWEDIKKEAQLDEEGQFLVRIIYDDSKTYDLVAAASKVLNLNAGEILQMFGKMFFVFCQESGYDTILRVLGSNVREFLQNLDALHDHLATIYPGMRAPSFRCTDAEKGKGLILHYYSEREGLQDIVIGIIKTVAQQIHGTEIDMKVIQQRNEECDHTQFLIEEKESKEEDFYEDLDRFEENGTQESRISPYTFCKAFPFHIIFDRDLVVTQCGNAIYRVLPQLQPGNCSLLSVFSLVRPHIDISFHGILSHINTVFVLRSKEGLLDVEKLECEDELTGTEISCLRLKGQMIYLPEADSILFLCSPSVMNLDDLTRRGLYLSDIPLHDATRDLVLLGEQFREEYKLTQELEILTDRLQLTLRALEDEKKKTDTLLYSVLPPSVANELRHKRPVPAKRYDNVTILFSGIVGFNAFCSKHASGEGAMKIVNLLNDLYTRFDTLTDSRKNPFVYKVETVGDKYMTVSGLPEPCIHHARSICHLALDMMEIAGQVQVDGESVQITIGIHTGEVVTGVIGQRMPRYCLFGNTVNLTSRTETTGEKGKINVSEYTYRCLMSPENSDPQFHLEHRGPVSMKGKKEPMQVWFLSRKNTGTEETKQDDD
Sequence (Q02108 1-690): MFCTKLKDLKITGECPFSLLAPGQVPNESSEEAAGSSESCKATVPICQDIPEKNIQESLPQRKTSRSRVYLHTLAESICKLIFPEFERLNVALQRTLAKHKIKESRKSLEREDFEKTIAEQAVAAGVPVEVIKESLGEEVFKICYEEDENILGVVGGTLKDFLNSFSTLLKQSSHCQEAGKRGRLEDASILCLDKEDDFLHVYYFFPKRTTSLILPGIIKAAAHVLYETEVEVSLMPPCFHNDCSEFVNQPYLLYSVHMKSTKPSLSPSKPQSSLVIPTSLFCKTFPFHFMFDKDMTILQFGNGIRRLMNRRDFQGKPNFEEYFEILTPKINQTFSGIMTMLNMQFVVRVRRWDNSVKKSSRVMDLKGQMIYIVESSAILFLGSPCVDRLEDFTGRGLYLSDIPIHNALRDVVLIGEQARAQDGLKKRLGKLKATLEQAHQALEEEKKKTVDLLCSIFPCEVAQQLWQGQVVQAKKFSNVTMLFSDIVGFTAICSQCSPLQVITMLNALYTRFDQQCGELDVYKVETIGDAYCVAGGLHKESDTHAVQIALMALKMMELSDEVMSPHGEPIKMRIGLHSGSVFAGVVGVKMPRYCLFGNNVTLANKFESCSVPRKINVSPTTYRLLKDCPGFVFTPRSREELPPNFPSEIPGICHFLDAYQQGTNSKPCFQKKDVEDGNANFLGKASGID
Experiment: sGC-HEK-cGMP assay (run with SNP incubation)
Format: cell-based
Settings: in the presence of 10 μM SNP; Table 3E; read-out: HEK assay EC50
pEC50: −log10 of the molar value.
OUTCOME_MEASURE: pEC50

Below are worked cases with known answers.
{"columns": ["MOLECULE", "EXPERIMENTAL_SYSTEM", "OUTCOME_MEASURE", "ENDPOINT_VALUE"],
 "data": [
  ["CC(=O)Nc1cnc(-c2cc(-c3ccon3)n(Cc3cccc(F)c3F)n2)nc1N", "soluble guanylate cyclase (sGC) (Homo sapiens, UniProt Q02108+Q02153)", "pEC50", "4.22 to 4.40"],
  ["Oc1nc(-c2cc(-c3ccon3)n(Cc3cccc(Cl)c3F)n2)ncc1Cl", "soluble guanylate cyclase (sGC) (Homo sapiens, UniProt Q02108+Q02153)", "pEC50", "4.22 to 4.40"],
  ["Oc1ccnc(-c2cc(-c3ccon3)n(Cc3cccc(F)c3F)n2)n1", "soluble guanylate cyclase (sGC) (Homo sapiens, UniProt Q02108+Q02153)", "pEC50", "4.00 to 4.22"],
  ["Nc1ccnc(-c2cc(-c3ccon3)n(Cc3cccc(Cl)c3F)n2)n1", "soluble guanylate cyclase (sGC) (Homo sapiens, UniProt Q02108+Q02153)", "pEC50", "4.00 to 4.22"],
  ["Nc1nc(-c2cc(-c3ccon3)n(Cc3ccccc3F)n2)ncc1N1CC(C(F)(F)F)OC1=O (stereo not drawn)", "soluble guanylate cyclase (sGC) (Homo sapiens, UniProt Q02108+Q02153)", "pEC50", "4.00 to 4.22"]
]}

Data point: O=c1[nH]c(-c2cc(-c3ccccn3)n(Cc3ccccc3F)n2)ncc1F ; pEC50 = 4.22 to 4.40

Notebook: N#Cc1cc(-c2ncc(F)c(=O)[nH]2)nn1Cc1ccccc1F , pEC50 read as 4.22 to 4.40

Reported pEC50 for O=c1[nH]c(-c2cc(-c3ccon3)n(Cc3cc(F)ccc3F)n2)ncc1F was 4.22 to 4.40

Memo: O=c1[nH]c(-c2cc(-c3ccon3)n(Cc3ccc(F)cc3F)n2)ncc1F , reported pEC50: 4.22 to 4.40

###

Target: soluble guanylate cyclase (sGC) (Homo sapiens, UniProt Q02108+Q02153)
Construct: endogenously expressing soluble guanylate cyclase (sGC); endogenous in cells; host or cells: HEK293
Sequence (Q02153 1-619): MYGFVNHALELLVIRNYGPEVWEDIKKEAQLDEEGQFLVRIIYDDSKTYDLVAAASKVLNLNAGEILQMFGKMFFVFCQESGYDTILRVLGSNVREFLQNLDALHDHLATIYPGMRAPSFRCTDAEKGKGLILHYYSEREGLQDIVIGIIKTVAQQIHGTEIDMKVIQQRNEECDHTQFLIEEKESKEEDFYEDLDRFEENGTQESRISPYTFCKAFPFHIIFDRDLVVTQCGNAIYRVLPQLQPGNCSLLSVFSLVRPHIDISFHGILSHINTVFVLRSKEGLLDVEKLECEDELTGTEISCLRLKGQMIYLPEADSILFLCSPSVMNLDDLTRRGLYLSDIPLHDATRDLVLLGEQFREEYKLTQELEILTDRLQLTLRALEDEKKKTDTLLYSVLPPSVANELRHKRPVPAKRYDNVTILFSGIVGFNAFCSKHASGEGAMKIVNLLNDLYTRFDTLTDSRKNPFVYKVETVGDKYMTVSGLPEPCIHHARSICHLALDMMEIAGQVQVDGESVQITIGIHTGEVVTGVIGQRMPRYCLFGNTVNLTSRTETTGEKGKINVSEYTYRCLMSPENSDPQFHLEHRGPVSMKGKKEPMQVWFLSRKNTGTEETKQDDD
Sequence (Q02108 1-690): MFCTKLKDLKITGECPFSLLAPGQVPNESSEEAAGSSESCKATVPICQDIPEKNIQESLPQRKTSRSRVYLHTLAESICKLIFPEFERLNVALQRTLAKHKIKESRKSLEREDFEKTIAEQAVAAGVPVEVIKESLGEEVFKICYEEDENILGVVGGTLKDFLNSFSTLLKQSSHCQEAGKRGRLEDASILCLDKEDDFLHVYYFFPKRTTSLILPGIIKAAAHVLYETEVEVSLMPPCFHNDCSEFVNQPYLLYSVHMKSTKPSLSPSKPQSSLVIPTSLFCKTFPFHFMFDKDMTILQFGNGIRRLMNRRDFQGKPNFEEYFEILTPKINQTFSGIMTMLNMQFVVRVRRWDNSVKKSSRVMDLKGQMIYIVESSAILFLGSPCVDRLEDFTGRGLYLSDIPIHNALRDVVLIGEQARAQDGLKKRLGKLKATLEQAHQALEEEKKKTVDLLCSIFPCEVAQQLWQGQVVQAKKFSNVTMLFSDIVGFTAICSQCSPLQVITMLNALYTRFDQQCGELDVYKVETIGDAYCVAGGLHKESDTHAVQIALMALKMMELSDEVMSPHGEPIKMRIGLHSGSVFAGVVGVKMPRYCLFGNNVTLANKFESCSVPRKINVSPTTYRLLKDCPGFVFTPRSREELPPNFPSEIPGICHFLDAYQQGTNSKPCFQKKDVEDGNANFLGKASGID
Assay: sGC-HEK-cGMP assay (run with SNP incubation)
Format: cell-based
Conditions: Table 3C; top of concentration-response curve not fitted to 100%; 10 μM SNP; 100% = 30 μM BAY 41-2272 with 10 μM SNP; read-out: HEK assay Emax-unconstrained (Percent)
OUTCOME_MEASURE: Emax

Here's what some known entries look like.
{"columns": ["COMPOUND", "Emax"],
 "data": [
  ["CC1(C)C(=O)Nc2nc(-c3cc(-c4ccon4)n(Cc4ccccc4F)n3)ncc21 [Compound 100]", "60 to 80%"],
  ["CC(=O)Nc1n[nH]c2nc(-c3cc(-c4ccon4)n(Cc4ccccc4F)n3)ncc12 [Compound 114]", "60 to 80%"],
  ["COc1nc(-c2cc(-c3ccon3)n(Cc3ccccc3F)n2)nc(Cl)c1F [Compound 116]", "20 to 40%"],
  ["CN(C)Cc1ccc(C(=O)Nc2cnc(-c3cc(-c4ccon4)n(Cc4cccc(F)c4F)n3)nc2N)cc1 [Compound 102]", "60 to 80%"],
  ["Cn1cnc2nc(-c3cc(-c4ccon4)n(Cc4ccccc4F)n3)ncc21 [Compound 109]", "40 to 60%"]
]}

Query CN(C)Cc1cccc(C(=O)Nc2cnc(-c3cc(-c4ccon4)n(Cc4cccc(F)c4F)n3)nc2N)c1 [Compound 104] yields Emax of 40 to 60%

Value of measured Emax for the entry Nc1nc(-c2cc(-c3ccon3)n(Cc3cccc(F)c3F)n2)ncc1NC(=O)c1ccc[nH]1 [Compound 103] : 80 to 100%

FYI, the data here is from patent US20150342954A1.
